test system: MCF7; assay: Cytotoxicity against ERalpha positive human MCF7 cells; assay type: functional, cell-based
pIC50: −log10 of the molar value.
Measured pIC50 accompanies every entry in the list below.

compound: CC(=O)O[C@H]1C(=O)[C@@]2(C)[C@H]([C@H](OC(=O)c3ccccc3)[C@]3(O)C[C@H](OC(=O)[C@H](OC(=O)N(C)CCN(C)C(=O)[C@H](CCCCN)NC(=O)[C@H](Cc4ccccc4)NC(=O)[C@@H](C)N)[C@@H](NC(=O)c4ccccc4)c4ccccc4)C(C)=C1C3(C)C)[C@]1(OC(C)=O)CO[C@@H]1C[C@@H]2O.Cl
subjectOfTest: MCF7
pIC50: 8.31
//
compound: CC(=O)O[C@H]1C(=O)[C@@]2(C)[C@H]([C@H](OC(=O)c3ccccc3)[C@]3(O)C[C@H](OC(=O)[C@H](OC(=O)NCCNC(=O)[C@H](CCCCN)NC(=O)[C@H](Cc4ccccc4)NC(=O)[C@@H](C)N)[C@@H](NC(=O)c4ccccc4)c4ccccc4)C(C)=C1C3(C)C)[C@]1(OC(C)=O)CO[C@@H]1C[C@@H]2O.Cl
subjectOfTest: MCF7
pIC50: 8.31
//
compound: CC(=O)O[C@H]1C(=O)[C@@]2(C)[C@H]([C@H](OC(=O)c3ccccc3)[C@]3(O)C[C@H](OC(=O)[C@H](OC(=O)N(C)CCNC(=O)[C@H](CCCCN)NC(=O)[C@H](Cc4ccccc4)NC(=O)[C@H](N)C(C)C)[C@@H](NC(=O)c4ccccc4)c4ccccc4)C(C)=C1C3(C)C)[C@]1(OC(C)=O)CO[C@@H]1C[C@@H]2O.Cl
subjectOfTest: MCF7
pIC50: 8.31
//
compound: CC(=O)O[C@H]1C(=O)[C@@]2(C)[C@H]([C@H](OC(=O)c3ccccc3)[C@]3(O)C[C@H](OC(=O)[C@@H](OC(=O)CCC(=O)O[C@@H]4C[C@]5(C)[C@@H](O)CC[C@H]5[C@@H]5CCc6cc(O)ccc6[C@H]54)[C@@H](NC(=O)c4ccccc4)c4ccccc4)C(C)=C1C3(C)C)[C@]1(OC(C)=O)CO[C@@H]1C[C@@H]2O
subjectOfTest: MCF7
pIC50: 6.99
//
compound: CC(=O)O[C@H]1C(=O)[C@@]2(C)[C@H]([C@H](OC(=O)c3ccccc3)[C@]3(O)C[C@H](OC(=O)[C@H](OC(=O)CCC(=O)O[C@@H]4C[C@]5(C)[C@@H](O)CC[C@H]5[C@@H]5CCc6cc(O)ccc6[C@H]54)[C@@H](NC(=O)c4ccccc4)c4ccccc4)C(C)=C1C3(C)C)[C@]1(OC(C)=O)CO[C@@H]1C[C@@H]2O
subjectOfTest: MCF7
pIC50: 7.21
//
compound: CC(=O)O[C@H]1C(=O)[C@@]2(C)[C@H]([C@H](OC(=O)c3ccccc3)[C@]3(O)C[C@H](OC(=O)[C@H](OC(=O)/C=C/C[C@@H]4C[C@H]5[C@@H]6CCc7cc(O)ccc7[C@H]6CC[C@]5(C)[C@H]4O)[C@@H](NC(=O)c4ccccc4)c4ccccc4)C(C)=C1C3(C)C)[C@]1(OC(C)=O)CO[C@@H]1C[C@@H]2O
subjectOfTest: MCF7
pIC50: 7.41
//
compound: CC(=O)O[C@H]1C(=O)[C@@]2(C)[C@H]([C@H](OC(=O)c3ccccc3)[C@]3(O)C[C@H](OC(=O)[C@@H](OC(=O)/C=C/C[C@@H]4C[C@H]5[C@@H]6CCc7cc(O)ccc7[C@H]6CC[C@]5(C)[C@H]4O)[C@@H](NC(=O)c4ccccc4)c4ccccc4)C(C)=C1C3(C)C)[C@]1(OC(C)=O)CO[C@@H]1C[C@@H]2O
subjectOfTest: MCF7
pIC50: 5.80
//
compound: CC(=O)O[C@H]1C(=O)[C@@]2(C)[C@H]([C@H](OC(=O)c3ccccc3)[C@]3(O)C[C@H](OC(=O)[C@H](OC(=O)N(C)CCN(C)C(=O)[C@H](CCCCN)NC(=O)[C@H](CC(C)C)NC(=O)[C@H](N)C(C)C)[C@@H](NC(=O)c4ccccc4)c4ccccc4)C(C)=C1C3(C)C)[C@]1(OC(C)=O)CO[C@@H]1C[C@@H]2O.Cl
subjectOfTest: MCF7
pIC50: 8.31

###

system: M19 melanoma cell line (human); experiment: Cytotoxicity against human M19 melanoma cells

compound: CC(=O)O[C@H]1C(=O)[C@@]2(C)[C@H]([C@H](OC(=O)c3ccccc3)[C@]3(O)C[C@H](OC(=O)[C@H](OC(=O)N(C)CCN(C)C(=O)[C@H](CCCCN)NC(=O)[C@H](Cc4ccccc4)NC(=O)[C@@H](C)N)[C@@H](NC(=O)c4ccccc4)c4ccccc4)C(C)=C1C3(C)C)[C@]1(OC(C)=O)CO[C@@H]1C[C@@H]2O.Cl
qualifierSymbol: =
IC50 [µg/mL]: 0.017
--
compound: CC(=O)O[C@H]1C(=O)[C@@]2(C)[C@H]([C@H](OC(=O)c3ccccc3)[C@]3(O)C[C@H](OC(=O)[C@H](OC(=O)N(C)CCN(C)C(=O)[C@H](CCCCN)NC(=O)[C@H](CC(C)C)NC(=O)[C@H](N)C(C)C)[C@@H](NC(=O)c4ccccc4)c4ccccc4)C(C)=C1C3(C)C)[C@]1(OC(C)=O)CO[C@@H]1C[C@@H]2O.Cl
qualifierSymbol: =
IC50 [µg/mL]: 0.024
--
compound: CC(=O)O[C@H]1C(=O)[C@@]2(C)[C@H]([C@H](OC(=O)c3ccccc3)[C@]3(O)C[C@H](OC(=O)[C@H](O)[C@@H](NC(=O)c4ccccc4)c4ccccc4)C(C)=C1C3(C)C)[C@]1(OC(C)=O)CO[C@@H]1C[C@@H]2O
qualifierSymbol: <
IC50 [µg/mL]: 0.003
--
compound: CC(=O)O[C@H]1C(=O)[C@@]2(C)[C@H]([C@H](OC(=O)c3ccccc3)[C@]3(O)C[C@H](OC(=O)[C@H](OC(=O)N(C)CCNC(=O)[C@H](CCCCN)NC(=O)[C@H](Cc4ccccc4)NC(=O)[C@H](N)C(C)C)[C@@H](NC(=O)c4ccccc4)c4ccccc4)C(C)=C1C3(C)C)[C@]1(OC(C)=O)CO[C@@H]1C[C@@H]2O.Cl
qualifierSymbol: =
IC50 [µg/mL]: 0.047

###

system: EVSA-T; test: Cytotoxicity against human EVSA-T cells; format: functional, cell-based

compound: CC(=O)O[C@H]1C(=O)[C@]2(C)[C@@H](OC(=O)C[C@H](O)C(=O)O)C[C@H]3OC[C@@]3(OC(C)=O)[C@H]2[C@H](OC(=O)c2ccccc2)[C@]2(O)C[C@H](OC(=O)[C@H](OC(=O)C[C@H](O)C(=O)O)[C@@H](NC(=O)c3ccccc3)c3ccccc3)C(C)=C1C2(C)C
qualifierSymbol: =
IC50 / µg/mL: 0.059

compound: CC(=O)O[C@H]1C(=O)[C@@]2(C)[C@H]([C@H](OC(=O)c3ccccc3)[C@]3(O)C[C@H](OC(=O)[C@H](OC(=O)C[C@H](O)C(=O)O)[C@@H](NC(=O)c4ccccc4)c4ccccc4)C(C)=C1C3(C)C)[C@]1(OC(C)=O)CO[C@@H]1C[C@@H]2O
qualifierSymbol: <
IC50 / µg/mL: 0.003

compound: CC(=O)O[C@H]1C(=O)[C@@]2(C)[C@H]([C@H](OC(=O)c3ccccc3)[C@]3(O)C[C@H](OC(=O)[C@H](OC(=O)NCCNC(=O)[C@H](CCCCN)NC(=O)[C@H](Cc4ccccc4)NC(=O)[C@@H](C)N)[C@@H](NC(=O)c4ccccc4)c4ccccc4)C(C)=C1C3(C)C)[C@]1(OC(C)=O)CO[C@@H]1C[C@@H]2O.Cl
qualifierSymbol: =
IC50 / µg/mL: 0.011

###

system: EVSA-T; test: Cytotoxicity against human EVSA-T cells; type: functional, cell-based
measuredParameter: IC50

compound: CC(=O)O[C@H]1C(=O)[C@@]2(C)[C@H]([C@H](OC(=O)c3ccccc3)[C@]3(O)C[C@H](OC(=O)[C@H](OC(=O)OCc4ccc(NC(=O)[C@H](CCCCN)NC(=O)[C@H](CC(C)C)NC(=O)[C@H](N)C(C)C)cc4)[C@@H](NC(=O)c4ccccc4)c4ccccc4)C(C)=C1C3(C)C)[C@]1(OC(C)=O)CO[C@@H]1C[C@@H]2O.Cl
result: 9.3 ng/mL
//
compound: CC(=O)O[C@H]1C(=O)[C@@]2(C)[C@H]([C@H](OC(=O)c3ccccc3)[C@]3(O)C[C@H](OC(=O)[C@H](OC(=O)N(C)CCN(C)C(=O)[C@H](CCCCN)NC(=O)[C@H](Cc4ccccc4)NC(=O)[C@@H](C)N)[C@@H](NC(=O)c4ccccc4)c4ccccc4)C(C)=C1C3(C)C)[C@]1(OC(C)=O)CO[C@@H]1C[C@@H]2O.Cl
result: 7.2 ng/mL
//
compound: CC(=O)O[C@H]1C(=O)[C@@]2(C)[C@H]([C@H](OC(=O)c3ccccc3)[C@]3(O)C[C@H](OC(=O)[C@H](OC(=O)C[C@H](O)C(=O)[O-])[C@@H](NC(=O)c4ccccc4)c4ccccc4)C(C)=C1C3(C)C)[C@]1(OC(C)=O)CO[C@@H]1C[C@@H]2O.[Na+]
result: < 3 ng/mL
//
compound: CC(=O)O[C@H]1C(=O)[C@@]2(C)[C@H]([C@H](OC(=O)c3ccccc3)[C@]3(O)C[C@H](OC(=O)[C@H](OC(=O)N(C)CCN(C)C(=O)[C@H](CCCCN)NC(=O)[C@H](CC(C)C)NC(=O)[C@H](N)C(C)C)[C@@H](NC(=O)c4ccccc4)c4ccccc4)C(C)=C1C3(C)C)[C@]1(OC(C)=O)CO[C@@H]1C[C@@H]2O.Cl
result: 5.2 ng/mL

The measurements presented in this section are drawn from ChEMBL document CHEMBL1140624.
